# Tested on: SNB-19 CNS
# protocol_text: NCI tumour cell line growth inhibition, 48 h; in the data active means GI50 below about 0.43 µM; inactive means the rest
Give your call using only these classes: active, inactive

[Q] Called result for O=C(Nc1sc2c(c1C(=O)O)CCCC2)c1ccco1
[A] inactive

[Q] Here is the next compound: COc1ccc2[nH]c(C(=O)N3CCN(C(=O)OCc4ccc5c(Cl)cc(Cl)c(O)c5n4)CC3)cc2c1
[A] inactive

[Q] Note, next up: COc1ccc2c(c1)C(=O)c1c-2c(OCCCN(C)C)nc2cc(Br)ccc12
[A] inactive

[Q] Item: OCc1ccc(N(Cc2ccc(F)cc2)Cc2ccc(F)cc2)cc1Cl
[A] inactive

[Q] Cool, now COc1ccc(-c2ccc(C3CC(c4ccccc4)=NN3)o2)c([N+](=O)[O-])c1 (configuration not stated)
[A] inactive

[Q] Again, but for CCOC(=O)Nc1ccc2nc(-c3cscn3)[nH]c2c1
[A] inactive

[Q] Also CSc1nc(Nc2cccc(NC(=O)CCl)c2)c(C#N)c(-c2cccc([N+](=O)[O-])c2)n1 ?
[A] inactive

[Q] Entry COC1=CC(c2ccc[nH]2)=N/C1=C\c1[nH]c(C)c(C(=O)CCCCCCCCC(=O)O[C@H]2CC[C@H]3C4CCc5cc(O)ccc5C4CC[C@]23C)c1C (some centres not stated) please
[A] inactive

[Q] Queued: CC(C)C[C@@H](N)[C@@H](O)C(=O)N[C@H](C(=O)N[C@H](C(=O)N[C@@H](CC(=O)O)C(=O)O)C(C)C)C(C)C
[A] inactive

[Q] Next compound: COc1cc(N2C(=O)[C@H](Cl)C2c2ccc(SC)cc2)cc(OC)c1OC (some centres not stated)
[A] active

[Q] And the next one, O=C1c2cccc3cccc(c23)C(=O)N1CCCCCN1CCN(CCN=c2cc3n(-c4ccc(Cl)cc4)c4ccccc4nc-3cc2Nc2ccc(Cl)cc2)CC1 ?
[A] inactive

[Q] And COc1ccc(-n2cc(-c3ccc(OC)c(OC)c3)[nH]c2=O)cc1 ?
[A] inactive

[Q] For COc1ccc(-n2c(=S)sc3c(Cl)nc(C)nc32)c(OC)c1 then?
[A] inactive

[Q] And what about the compound O=C1C(=O)c2c(nc3ccc(C(F)(F)F)cn23)-c2ccccc21 ?
[A] active

[Q] What about this compound? O=C(Nc1n[nH]c2cc(-c3cc(F)ccc3F)ccc12)C1CC1
[A] inactive

[Q] What about this compound? NC(N)=N/N=C\c1ccc(OCc2ccccc2)cc1
[A] inactive

[Q] What do you get for O=C1c2cc3c(cc2-c2c1c1cc(F)c(F)cc1c(=O)n2CCCn1ccnc1)OCO3 ?
[A] active

* * *

Please provide measured log10(TGI) for the entries that follow.
# Tested on: HS 578T breast
# protocol_text: NCI tumour cell line growth inhibition, 48 h
Could you please treat all values as log10 of TGI in µM?

[Q] Given the compound Nc1cc2c3c(cccc3c1)C(=O)N(CCN1CCCC1)C2=O , what is its reported log10(TGI)?
[A] 1.54

[Q] Now give it for C/C(=N/NC(=S)Nc1ccccc1)c1nc2ccc(Cl)cc2[nH]1 too.
[A] 0.29

[Q] And the next one, CCCCCCCC/C=C/CCCCCCCC1=NC(C)(C)CN1C(C)(C)CO ?
[A] 0.59

[Q] Consider next the compound COc1ccc(-n2c(=S)sc3c(Cl)nc(C)nc32)c(OC)c1 in the same way.
[A] 0.89

[Q] Another compound to check: CSc1nc(Nc2cccc(NC(=O)CCl)c2)c(C#N)c(-c2cccc([N+](=O)[O-])c2)n1
[A] 1.49
